assay_target: SMARCA2 (Homo sapiens, UniProt P51531)
Sequence (P51531 whole entry): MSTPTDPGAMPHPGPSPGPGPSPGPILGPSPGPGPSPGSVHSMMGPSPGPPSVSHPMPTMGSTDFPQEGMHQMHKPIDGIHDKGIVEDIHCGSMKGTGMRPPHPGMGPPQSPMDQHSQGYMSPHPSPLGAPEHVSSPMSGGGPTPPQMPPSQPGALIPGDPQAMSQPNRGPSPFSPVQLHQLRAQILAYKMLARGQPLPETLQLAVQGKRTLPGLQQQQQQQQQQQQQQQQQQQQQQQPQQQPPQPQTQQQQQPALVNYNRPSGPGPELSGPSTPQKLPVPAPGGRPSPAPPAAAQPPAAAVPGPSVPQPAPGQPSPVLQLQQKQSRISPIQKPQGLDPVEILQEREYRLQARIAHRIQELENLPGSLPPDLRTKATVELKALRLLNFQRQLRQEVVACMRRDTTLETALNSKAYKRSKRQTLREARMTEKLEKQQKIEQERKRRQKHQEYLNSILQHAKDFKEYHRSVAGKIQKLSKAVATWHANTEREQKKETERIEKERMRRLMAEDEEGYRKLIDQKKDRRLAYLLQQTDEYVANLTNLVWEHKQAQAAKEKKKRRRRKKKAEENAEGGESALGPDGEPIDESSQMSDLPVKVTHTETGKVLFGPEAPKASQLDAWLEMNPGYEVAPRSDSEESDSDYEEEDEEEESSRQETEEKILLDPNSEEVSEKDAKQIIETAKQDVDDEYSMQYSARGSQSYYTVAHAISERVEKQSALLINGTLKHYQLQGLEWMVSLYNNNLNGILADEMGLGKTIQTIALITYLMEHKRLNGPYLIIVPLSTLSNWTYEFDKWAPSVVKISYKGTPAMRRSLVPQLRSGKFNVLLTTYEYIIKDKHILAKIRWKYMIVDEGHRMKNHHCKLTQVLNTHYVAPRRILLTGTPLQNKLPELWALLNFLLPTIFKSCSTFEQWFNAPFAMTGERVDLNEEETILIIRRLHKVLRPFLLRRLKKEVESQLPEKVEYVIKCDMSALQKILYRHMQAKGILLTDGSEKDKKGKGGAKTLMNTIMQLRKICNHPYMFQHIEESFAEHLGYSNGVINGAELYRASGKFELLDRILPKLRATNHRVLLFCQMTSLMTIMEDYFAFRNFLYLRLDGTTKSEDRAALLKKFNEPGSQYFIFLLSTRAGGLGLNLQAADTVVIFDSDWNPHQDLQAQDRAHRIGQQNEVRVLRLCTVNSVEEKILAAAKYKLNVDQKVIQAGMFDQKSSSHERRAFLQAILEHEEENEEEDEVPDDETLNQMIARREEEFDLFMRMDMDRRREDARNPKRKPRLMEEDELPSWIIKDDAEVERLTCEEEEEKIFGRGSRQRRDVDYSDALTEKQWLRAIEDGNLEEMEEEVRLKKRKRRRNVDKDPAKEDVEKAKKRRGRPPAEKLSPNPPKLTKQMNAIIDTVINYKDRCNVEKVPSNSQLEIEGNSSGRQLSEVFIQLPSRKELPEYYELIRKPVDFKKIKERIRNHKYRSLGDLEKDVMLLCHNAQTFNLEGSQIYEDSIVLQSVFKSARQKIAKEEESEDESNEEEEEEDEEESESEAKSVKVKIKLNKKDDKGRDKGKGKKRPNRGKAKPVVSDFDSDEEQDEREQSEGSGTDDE
test_protocol: MSD SMARCA2 degradation in A549 cell line
Format: cell-based
experimental_conditions: A549 cells, 24 h, read-out: SMARCA2 MSD A549 degradation 24 h: Average external-Abs DC50
measured_parameter: DC50

[in] Quick check: DC50 of Cc1ncsc1-c1ccc(CNC(=O)[C@@H]2C[C@@H](O)CN2C(=O)[C@@H](NC(=O)C2(F)CC2)C(C)(C)C)c(O[C@H]2CC[C@@H](N3CCC(N4CCC(c5cnc(N6CCc7[nH]c8nnc(-c9ccccc9O)cc8c7[C@@H]6C)nc5)CC4)CC3)CC2)c1 (single isomer, unassigned) ?
[out] > 100 nM

[in] Quick check: DC50 of C#Cc1ccc(CNC(=O)[C@@H]2C[C@@H](O)CN2C(=O)[C@@H](NC(=O)[C@H]2CCC3(CC2)C[C@H](N2CCC(N4CCC(N5CCN6c7cc(-c8ccccc8O)nnc7NC[C@H]6C5)CC4)CC2)C3)C(C)(C)C)cc1 (single isomer, unassigned) [I-175] ?
[out] 50 to 100 nM

[in] Quick check: DC50 of C#Cc1ccc(CNC(=O)[C@@H]2C[C@@H](O)CN2C(=O)[C@@H](NC(=O)N2CC3(CC(N4CCC([C@H]5CC[C@H](N6CCc7[nH]c8nnc(-c9ccccc9O)cc8c7[C@H]6C)CC5)CC4)C3)C2)C(C)(C)C)cc1 ?
[out] > 100 nM

[in] Quick check: DC50 of Cc1ncsc1-c1ccc(CNC(=O)[C@@H]2C[C@@H](O)CN2C(=O)[C@@H](NC(=O)C2(F)CC2)C(C)(C)C)c(O[C@H]2CC[C@@H](N3CCC(c4cnc(N5CCc6[nH]c7nnc(-c8ccccc8O)cc7c6[C@@H]5C)nc4)CC3)CC2)c1 (single isomer, unassigned) ?
[out] > 100 nM

[in] Quick check: DC50 of C#Cc1ccc(CNC(=O)[C@@H]2C[C@@H](O)CN2C(=O)[C@@H](NC(=O)[C@H]2CCC3(CC2)C[C@H](N2CCC(c4cnc(N5CCN6c7cc(-c8ccccc8O)nnc7NC[C@H]6C5)nc4)CC2)C3)C(C)(C)C)c(F)c1 (single isomer, unassigned) [I-97] ?
[out] 10 to 50 nM

[in] Quick check: DC50 of C#CCOc1cc(C(C(=O)N2C[C@H](O)C[C@H]2C(=O)NCc2ccc(-c3scnc3C)cc2O[C@H]2CC[C@H](N3CCC(c4cnc(N5CCc6[nH]c7nnc(-c8ccccc8O)cc7c6[C@@H]5C)nc4)CC3)CC2)C(C)C)on1 (single isomer, unassigned) ?
[out] > 100 nM

[in] Quick check: DC50 of C#Cc1ccc(CNC(=O)[C@@H]2C[C@@H](O)CN2C(=O)[C@@H](NC(=O)N2CCN(C[C@H]3CC[C@@H](N4CCc5[nH]c6nnc(-c7ccccc7O)cc6c5[C@H]4C)CC3)CC2)C(C)(C)C)cc1 ?
[out] > 100 nM

[in] Quick check: DC50 of Cc1ncsc1-c1ccc(CNC(=O)[C@@H]2C[C@@H](O)CN2C(=O)[C@@H](NC(=O)C2(F)CC2)C(C)(C)C)c(OCCCCN2CCC(c3cnc(N4CCN5c6cc(-c7ccccc7O)nnc6NC[C@H]5C4)nc3)CC2)c1 (single isomer, unassigned) ?
[out] 10 to 50 nM

[in] Quick check: DC50 of C#Cc1cc(O)c(CNC(=O)[C@@H]2C[C@@H](O)CN2C(=O)[C@@H](NC(=O)N2CC3(CC(N4CCC(c5cnc(N6CCc7[nH]c8nnc(-c9ccccc9O)cc8c7[C@H]6C)nc5)CC4)C3)C2)C(C)(C)C)c(Cl)c1 ?
[out] > 100 nM

[in] Quick check: DC50 of CC#Cc1ccc(CNC(=O)[C@@H]2C[C@@H](O)CN2C(=O)[C@@H](NC(=O)[C@H]2CCC3(CC2)C[C@H](N2CCC(c4cnc(N5CCN6c7cc(-c8ccccc8O)nnc7NC[C@H]6C5)nc4)CC2)C3)C(C)(C)C)cc1 (single isomer, unassigned) [I-117] ?
[out] > 100 nM

[in] Quick check: DC50 of Cc1ncsc1-c1ccc(CNC(=O)[C@@H]2C[C@@H](O)CN2C(=O)C(c2cc(OCCN3CCC(N4CCC(c5cnc(N6CCc7[nH]c8nnc(-c9ccccc9O)cc8c7[C@H]6C)nc5)CC4)CC3)no2)C(C)C)cc1 (some centres unmarked) ?
[out] 10 to 50 nM
